Value source: patent US12384795B2

- Measurement description: in vivo
- Reported conditions: male, Sprague-Dawley (SD), rat, in vivo, iv, 1 mg/kg
Measured endpoint: half-life (h)
Give the quantity in h, number only.

**Q:** Assign half-life to the following record: C=C1c2c(-c3ccc(C(=O)Nc4ccccn4)cc3)c3c(N)ncnc3n2C[C@H]1NC(=O)C#CC
**A:** 1.26

====

- Measurement description: in vivo
- Reported conditions: male, Sprague-Dawley (SD), rat, in vivo, iv, 1 mg/kg
- Description: Fourteen SD rats, male, weighing 200-220 g, were randomly divided into 4 groups (4/3 rats in each group) and given the tested compounds by intragastric administration and intravenous administration respectively. 0.5% sodium carboxymethyl cellulose (CMC-Na) containing 1% Tween 80 was formulated for intragastric administration, and 5% DMSO/5% Tween 80/90% normal saline was formulated for intravenous administration. […] The concentration of S17016 in rat plasma was determined by LC/MS/MS.
Measured endpoint: clearance (mL/min/kg)
Give the value, in units of mL/min/kg, as a plain number.

**Q:** Tell me measured clearance for C=C1c2c(-c3ccc(C(=O)Nc4ccccn4)cc3)c3c(N)ncnc3n2C[C@H]1NC(=O)C#CC [Compound S17016] please.
**A:** 3.33
